Target: T1, human SLC34A2 (human, UniProt O95436 1-690)
T1 sequence (looked up): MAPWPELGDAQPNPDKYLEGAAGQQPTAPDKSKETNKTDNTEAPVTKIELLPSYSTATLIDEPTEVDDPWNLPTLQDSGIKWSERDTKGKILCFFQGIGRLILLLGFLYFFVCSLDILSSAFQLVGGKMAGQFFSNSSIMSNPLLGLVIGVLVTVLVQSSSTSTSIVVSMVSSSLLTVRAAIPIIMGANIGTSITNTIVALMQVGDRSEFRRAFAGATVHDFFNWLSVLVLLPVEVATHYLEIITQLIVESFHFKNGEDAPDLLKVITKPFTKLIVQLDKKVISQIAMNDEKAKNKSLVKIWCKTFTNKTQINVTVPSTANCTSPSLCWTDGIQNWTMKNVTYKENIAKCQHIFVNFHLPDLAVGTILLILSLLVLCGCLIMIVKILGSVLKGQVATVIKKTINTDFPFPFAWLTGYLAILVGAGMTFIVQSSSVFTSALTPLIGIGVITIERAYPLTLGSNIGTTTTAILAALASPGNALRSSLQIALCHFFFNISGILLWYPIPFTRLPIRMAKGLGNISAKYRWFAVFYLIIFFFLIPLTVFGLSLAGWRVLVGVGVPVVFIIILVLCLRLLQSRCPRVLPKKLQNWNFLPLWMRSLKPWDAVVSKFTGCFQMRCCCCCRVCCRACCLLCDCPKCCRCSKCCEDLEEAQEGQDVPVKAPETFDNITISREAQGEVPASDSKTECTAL
Assay: FACS, MDAH2774 cells
Measure: EC50 (nM)
The answer is to be given in nM; state only the numeric part.

Example entries begin here.
Binder | Measure | U | Result
XMT-1536 (antibody, INN chains, looked up, V domains shown, rilsodotin auristatin payload) VH: QVQLVQSGAEVVKPGASVKMSCKASGYTFTGYNIHWVKQAPGQGLEWIGAIYPGNGDTSYKQKFRGRATLTADTSTSTVYMELSSLRSEDSAVYYCARGETARATFAYWGQGTLVTVSS VL: DIQMTQSPSSLSASVGDRVTITCSASQDIGNFLNWYQQKPGKTVKVLIYYTSSLYSGVPSRFSGSGSGTDYTLTISSLQPEDFATYYCQQYSKLPLTFGQGTKLELK | EC50 | nM | 7.09
62G10E4G8.p3.z15 hIgG1 (antibody, V domains shown, humanized hIgG1) VH: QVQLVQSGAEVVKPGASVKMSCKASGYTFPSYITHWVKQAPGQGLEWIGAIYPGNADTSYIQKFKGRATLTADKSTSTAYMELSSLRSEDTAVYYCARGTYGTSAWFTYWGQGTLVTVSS VL: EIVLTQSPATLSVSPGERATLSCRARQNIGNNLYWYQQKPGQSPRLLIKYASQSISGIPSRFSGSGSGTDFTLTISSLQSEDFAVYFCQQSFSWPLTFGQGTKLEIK | EC50 | nM | 2.82

Problem: Quick one: EC50 of 91C9F1.p1.z7 hIgG1 (antibody, V domains shown, humanized hIgG1) VH: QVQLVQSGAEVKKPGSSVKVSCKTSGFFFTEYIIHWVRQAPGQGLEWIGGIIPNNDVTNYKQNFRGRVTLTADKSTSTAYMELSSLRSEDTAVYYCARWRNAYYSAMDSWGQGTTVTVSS VL: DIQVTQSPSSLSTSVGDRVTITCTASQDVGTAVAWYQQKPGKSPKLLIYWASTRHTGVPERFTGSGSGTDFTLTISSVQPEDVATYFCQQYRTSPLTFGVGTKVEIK ?
Solution: 2.06
